Tested on: M19-MEL
Procedure Summary: NCI tumour cell line growth inhibition, 48 h
Calls of active or inactive are those of the source. Cut-off read from the data, not from the text of the source: active = GI50 up to about 1.1 µM and inactive = higher.
Outcome codes: yes (active), no (inactive)

{"Compound": "Cc1c(Cl)cccc1NC(=O)C(=O)C1C(=O)CC(C)(C)CC1=O", "Answer Label": "no"}
{"Compound": "O=C(NCCO)c1ccc([N+](=O)[O-])cc1", "Answer Label": "no"}
{"Compound": "Clc1ccc(CCN2CCOCC2)c(Cl)c1", "Answer Label": "no"}
{"Compound": "C/C(=N\\NS(=O)(=O)c1ccc(C)cc1)C(CN1CCOCC1)C(c1ccccc1)c1c(O)c2ccccc2oc1=O (configuration not stated)", "Answer Label": "no"}
{"Compound": "COc1cccc(-c2cc(C(=O)Nc3ccc(Cl)cc3)nc(N)n2)c1", "Answer Label": "no"}
{"Compound": "CCN(CC)CCN1CCc2c([nH]c3ccccc23)C1c1cccnc1 (configuration not stated)", "Answer Label": "no"}
{"Compound": "CC(=O)SC(SC(C)=O)SC(C)=O", "Answer Label": "no"}
{"Compound": "CC(C)C(Nc1c2ccccc2[n+]([O-])c2ccccc12)C(=O)O (configuration not stated)", "Answer Label": "no"}
{"Compound": "Cc1cc(N(CCC#N)CCC#N)ccc1/C=C(/NC(=O)/C=C/c1ccccc1)C(N)=O", "Answer Label": "no"}
{"Compound": "COC(=O)c1ccc(OCc2ccc3oc(=O)c(-c4ccccc4)nc3c2)cc1", "Answer Label": "no"}
{"Compound": "CCN(CC)CC(C(=O)Nc1c(C)cccc1C)/C(C)=N\\NC(=O)C[N+](C)(C)C (configuration not stated)", "Answer Label": "no"}
{"Compound": "COc1ccc(CN[C@H]2CCc3cc(OC)c(OC)c(OC)c3-c3ccc(SC)c(=O)cc32)c(OC)c1OC", "Answer Label": "yes"}

====

Test system: A549
Procedure Summary: NCI tumour cell line growth inhibition, 48 h
The source made the active and inactive calls. Cut-off read from the data, not from the text of the source: active = GI50 up to about 1.1 µM and inactive = higher.
Outcome codes: active, inactive

{"Molecule": "CN(CCCCN(C)CCc1ccc(Cl)c(Cl)c1)CCCCN1CCCC1", "Answer Label": "inactive"}
{"Molecule": "CC(C)C(Nc1c2ccccc2[n+]([O-])c2ccccc12)C(=O)O (stereo unspecified)", "Answer Label": "inactive"}
{"Molecule": "CCCCOC(=O)NC(c1ccccc1)C(O)C(=O)OC1C[C@@]2(O)C(OC(=O)c3ccccc3)C3[C@](C)(C(=O)[C@H](OC(C)=O)C(=C1C)C2(C)C)[C@@H](O)C[C@H]1OC[C@@]31OC(C)=O (stereo partly specified)", "Answer Label": "active"}
{"Molecule": "COc1cccc(-c2cc(C(=O)Nc3ccc(Cl)cc3)nc(N)n2)c1", "Answer Label": "inactive"}
{"Molecule": "CSCCC(NC(=O)Cc1ccc(C(=O)c2ccccc2)cc1)C(=O)O (stereo unspecified)", "Answer Label": "inactive"}
{"Molecule": "CC(=O)Oc1c(C)cc2c(c1C)C(C)CN2C(C)=O (stereo unspecified)", "Answer Label": "inactive"}

====

Test system: Hs-578T
Procedure Summary: NCI tumour cell line growth inhibition, 48 h
Active and inactive are the calls of the source. Cut-off read from the data, not from the text of the source: active = GI50 up to about 1.1 µM and inactive = higher.

{"Compound": "O=[N+]([O-])c1ccc(NN=C2c3ccccc3Cc3ccccc32)c([N+](=O)[O-])c1", "GI50": "4.07 µM (inactive)"}
{"Compound": "O=c1c(C(c2ccc3ccccc3c2)c2c(O)oc3cc(O)ccc3c2=O)c(O)oc2cc(O)ccc12", "GI50": "21.3 µM (inactive)"}
{"Compound": "COc1ncc(C#CC(=O)c2ccccc2OC)c(OC)n1", "GI50": "9.98 µM (inactive)"}
{"Compound": "C/C(=N\\NC(N)=O)C(CN(C)C)C(c1ccccc1)c1c(O)c2ccccc2oc1=O (stereo not drawn)", "GI50": "> 100 µM (inactive)"}
{"Compound": "CCCC(=O)n1[nH]c(=O)n(-c2ccc(Cl)cc2)c1=O", "GI50": "> 100 µM (inactive)"}
{"Compound": "Cc1nc(O)nc2nc3ccc(Cl)cc3c(NC(C)(CO)CO)c12", "GI50": "46.9 µM (inactive)"}
{"Compound": "O=c1[nH]c(=S)[nH]c(-c2ccccc2)c1Cc1c(O)ccc2ccccc12", "GI50": "43.9 µM (inactive)"}
{"Compound": "CCCCN(CCCC)C1=Nc2ccccc2-n2c(nnc2C(=O)OCC)C1", "GI50": "> 100 µM (inactive)"}

====

Tested on: SF-295
Procedure Summary: NCI tumour cell line growth inhibition, 48 h
Calls of active or inactive are those of the source. Rule as the data show it: active = GI50 up to about 1.1 µM and inactive = higher.
Outcome codes: active, inactive

{"Compound": "CN(C)CCCNC(=O)c1cccc2nc3ccccc3nc12", "Answer Label": "inactive"}
{"Compound": "C/C(=N\\NS(=O)(=O)c1ccc(C)cc1)C(CN1CCOCC1)C(c1ccccc1)c1c(O)c2ccccc2oc1=O (configuration not stated)", "Answer Label": "inactive"}
{"Compound": "CCC(O)(Cc1ccc(OC)cc1)c1ccc(OC)cc1 (configuration not stated)", "Answer Label": "inactive"}
{"Compound": "COc1ccc2c(C=O)c3n(c(=O)c2c1OC)CCc1cc2c(cc1-3)OCO2", "Answer Label": "inactive"}
{"Compound": "Cc1cc(NC(=O)NC(=O)c2ccccc2NC(=O)CN)ccc1Oc1ncc(Br)cn1", "Answer Label": "active"}
{"Compound": "Cc1nc2ccccc2c(=O)n1/N=C(\\N=N\\c1ccc(Cl)cc1)c1ccc(N(C)C)cc1", "Answer Label": "inactive"}
{"Compound": "O=c1[nH]nc(NNc2ccccc2)c2nnn(C3CCCCC3)c12", "Answer Label": "inactive"}
{"Compound": "O=C(O)C1CCCCC1C(=O)Nn1cnnc1 (configuration not stated)", "Answer Label": "inactive"}
{"Compound": "COC(=O)c1cc(/C=C2\\Cc3cc4c(cc3C2=O)CCC4)cc2c1CCC2", "Answer Label": "inactive"}
{"Compound": "Cc1c2c(C#N)nccc2c(C)c2c1c1ccccc1n2Cc1ccccc1", "Answer Label": "inactive"}
{"Compound": "[N-]=[N+]=CC(=O)C1(C(=O)C=[N+]=[N-])CC1", "Answer Label": "inactive"}
{"Compound": "O=c1c(C(c2ccc3ccccc3c2)c2c(O)oc3cc(O)ccc3c2=O)c(O)oc2cc(O)ccc12", "Answer Label": "inactive"}
{"Compound": "C[C@@H]1[C@@H](c2ccccc2)O[B-](c2ccccc2)(c2ccccc2)N1C", "Answer Label": "inactive"}
{"Compound": "CC1=NN(C(=O)Nc2ccc(Cl)cc2)C(=O)C2CCC(=O)N12 (configuration not stated)", "Answer Label": "inactive"}
{"Compound": "O=C(NO)c1ccc(OCc2cccc(Cl)c2)cc1", "Answer Label": "inactive"}
{"Compound": "CC(=O)OCC1OC(O[C@@H]2C[C@H]3C(C)(C)[C@H](OC(C)=O)CC[C@]3(C)[C@H]3CC[C@]4(C)C(=CC[C@H]4[C@@H](C)C[C@@H](O)[C@H](O)C(C)(C)O)[C@@]32C)C(O)C(O)C1O (some centres not stated)", "Answer Label": "inactive"}
{"Compound": "CCCCCCCCCCOc1ccc(/N=N/c2nnc(-c3ccc(OCCCCC)cc3)s2)cc1", "Answer Label": "inactive"}
{"Compound": "N#CCN(Cc1ccccc1)[C@@H]1CCC[C@]1(O)C#Cc1ccc2c(c1)OCO2", "Answer Label": "inactive"}
{"Compound": "CCSc1n/c(=C\\c2ccco2)c2nnnn12", "Answer Label": "inactive"}
{"Compound": "CN(CCCCN(C)CCc1ccc(Cl)c(Cl)c1)CCCCN1CCCC1", "Answer Label": "inactive"}
{"Compound": "C1CN2CCN3CCN4CCN1[PH]243", "Answer Label": "inactive"}
{"Compound": "O=c1[nH]nc(Cc2ccccc2)n1/N=C/c1ccccc1Cl", "Answer Label": "inactive"}
{"Compound": "O=C1Nc2ccccc2N/C1=C\\C(=O)c1ccccc1O", "Answer Label": "inactive"}
{"Compound": "CCOc1ccncc1[N+](=O)[O-]", "Answer Label": "inactive"}
{"Compound": "Clc1ccc(-n2nnc(C3=NCCCN3)c2-c2ccccc2)cc1", "Answer Label": "inactive"}
{"Compound": "CCCCSC1=N/C(=C\\c2ccccc2O)C(Cl)=N1", "Answer Label": "inactive"}
{"Compound": "O=C1C2CCCCC2C(=O)N1n1c(-c2ccccc2)n[nH]c1=O (configuration not stated)", "Answer Label": "inactive"}
{"Compound": "CC(C)CN1CN(c2ccccc2)C2(CCN(CC(C)(c3ccc(F)cc3)C3OCCO3)CC2)C1=O (configuration not stated)", "Answer Label": "inactive"}
{"Compound": "CC(=O)NC1C(OCc2ccccc2)OC(CO)C(O)C1OCC(=O)N1CCCC1C(=O)N[C@@H](CCC(=O)NCCNCCNc1c2ccccc2nc2cccc([N+](=O)[O-])c12)C(N)=O (some centres not stated)", "Answer Label": "inactive"}
{"Compound": "CN(C)Cc1cc(/C=C/C(=O)c2ccc(Cl)c(Cl)c2)cc(CN(C)C)c1O", "Answer Label": "inactive"}
{"Compound": "CCOC(=O)C(C(=O)OCC)=C1C=C(c2ccccc2)c2ccccc21", "Answer Label": "inactive"}
{"Compound": "O=C(O)CCc1ccc(-c2ccccc2)[nH]1", "Answer Label": "inactive"}
{"Compound": "c1ccc(CN[C@]23C4C5CC6C7C5C2C7[C@@](NCc2ccccc2)(C64)N3Cc2ccccc2)cc1 (some centres not stated)", "Answer Label": "inactive"}
{"Compound": "CCN(CC)C1CCC(C2c3cc4c(cc3OC(N3CCOCC3)C2C)OCO4)CC1 (configuration not stated)", "Answer Label": "inactive"}
{"Compound": "C[C@]12CCC(=O)C(O)=C1CC[C@@H]1C2CC[C@]2(C)Nc3c(cnn3-c3ccccc3)CC12 (some centres not stated)", "Answer Label": "inactive"}
{"Compound": "COC(=O)CCc1ccc(CCC(=O)OC)cc1", "Answer Label": "inactive"}
{"Compound": "CCCCOC(=O)NC(c1ccccc1)C(O)C(=O)OC1C[C@@]2(O)C(OC(=O)c3ccccc3)C3[C@](C)(C(=O)[C@H](OC(C)=O)C(=C1C)C2(C)C)[C@@H](O)C[C@H]1OC[C@@]31OC(C)=O (some centres not stated)", "Answer Label": "active"}
